# Vmax ± SEM per record follows
biological target: SERT (Homo sapiens, UniProt P31645); test: Stereoselective uptake into SERT-overexpressing HEK293 cells; settings: HEK293 cells overexpressing human SERT; racemic substrate, two minutes; net uptake;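 note: uptake into HEK293 cells stably expressing human SERT over 2 min, enantiomers measured in cell lysate by chiral HPLC-MS/MS, normalized to total protein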
Sequence (P31645 whole entry): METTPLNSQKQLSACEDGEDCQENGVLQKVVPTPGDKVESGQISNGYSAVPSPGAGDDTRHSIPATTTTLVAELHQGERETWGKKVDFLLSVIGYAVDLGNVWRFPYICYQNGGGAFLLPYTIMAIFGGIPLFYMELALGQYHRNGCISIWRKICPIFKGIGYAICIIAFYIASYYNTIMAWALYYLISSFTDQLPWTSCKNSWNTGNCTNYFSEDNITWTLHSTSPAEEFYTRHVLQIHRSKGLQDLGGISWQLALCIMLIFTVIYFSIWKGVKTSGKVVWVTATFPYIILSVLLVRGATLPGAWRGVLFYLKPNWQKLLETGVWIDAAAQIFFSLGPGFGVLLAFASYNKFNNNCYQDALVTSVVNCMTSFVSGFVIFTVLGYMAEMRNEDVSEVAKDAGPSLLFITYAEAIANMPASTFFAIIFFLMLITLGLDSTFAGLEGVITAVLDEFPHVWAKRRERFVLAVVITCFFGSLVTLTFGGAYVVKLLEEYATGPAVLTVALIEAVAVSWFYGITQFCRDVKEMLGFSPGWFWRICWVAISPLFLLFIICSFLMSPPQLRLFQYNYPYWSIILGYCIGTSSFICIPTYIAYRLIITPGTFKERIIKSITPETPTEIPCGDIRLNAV

[
  {
    "Compound": "NC[C@@H](O)c1ccc(O)c(O)c1 [(S)-Norepinephrine]",
    "Tested system": "SERT (Homo sapiens, UniProt P31645)",
    "Vmax ± SEM": "405 ± 42 pmol × mg Protein^−1 × min^−1"
  },
  {
    "Compound": "NC[C@H](O)c1ccc(O)c(O)c1 [(R)-Norepinephrine]",
    "Tested system": "SERT (Homo sapiens, UniProt P31645)",
    "Vmax ± SEM": "727 ± 60 pmol × mg Protein^−1 × min^−1"
  },
  {
    "Compound": "C[C@@H]1NCCc2cc(O)c(O)cc21 [Salsolinol-2, Salsolinol]",
    "Tested system": "SERT (Homo sapiens, UniProt P31645)",
    "Vmax ± SEM": "171 pmol × mg Protein^−1 × min^−1"
  }
]

Now take the following compound into account.
Prompt: Returns the measured Vmax ± SEM for the input compound. Input: C[C@@H]1NCCc2cc(O)c(O)cc21 [Salsolinol-1, Salsolinol]
Response: 229 pmol × mg Protein^−1 × min^−1
